Cited source: the supplement of paper PMC10646978

Test system: RAW-Dual (murine macrophage reporter line)
Assay: NF-kB reporter (SEAP) activity fold change vs agonist alone; higher = enhanced NF-kB activity
Settings: modulator concentration 10 µM; agonist: MPLA […]
Below is a list of entries, each paired with its recorded NF-kB reporter value.
Note: the reply should be a number with no unit written.

Here are 8 compounds together with their reported answers.
COMPOUND	STUDY_SYSTEM	NF-kB reporter
Cl.O=C1c2cccc3c2[C@H](CCC3)CN1[C@@H]1CN2CCC1CC2	RAW-Dual (murine macrophage reporter line)	0.823
COc1cc2nc(N3CCN(C(=O)C4COc5ccccc5O4)CC3)nc(N)c2cc1OC.CS(=O)(=O)O (stereo not given)	RAW-Dual (murine macrophage reporter line)	1.2
Oc1ccc(N=Cc2ccccc2)cc1	RAW-Dual (murine macrophage reporter line)	2.67
COc1ccc(Nc2nc(Nc3ccc(F)cc3)nc(N3CCOCC3)n2)cc1OC	RAW-Dual (murine macrophage reporter line)	2.96
O=C(CCC1CCCCC1)Nc1ccc(Br)cc1	RAW-Dual (murine macrophage reporter line)	1.07
CC(NC(=O)c1nc2ccccc2[nH]1)c1ccc(Br)cc1 (stereo not given)	RAW-Dual (murine macrophage reporter line)	0.985
Nc1ccc(S(=O)(=O)NCCO)cc1	RAW-Dual (murine macrophage reporter line)	0.996
COc1ccc(C)c2sc(=NC(=O)c3ccccc3)n(C)c12	RAW-Dual (murine macrophage reporter line)	2.25

Record `CC1(C)CC(NC(=O)c2cccnc2-c2nc3ccccc3s2)CC(C)(C)N1` ; system RAW-Dual (murine macrophage reporter line); NF-kB reporter = 0.948

Hey, RAW-Dual (murine macrophage reporter line) data for `NC(=S)c1cc2ccc(O)cc2oc1=O` : NF-kB reporter came out at 2.26

Lab entry: RAW-Dual (murine macrophage reporter line) assay, compound `O=C(CCCCCN1C(=O)c2cccc3cccc(c23)C1=O)NO` , NF-kB reporter = 4.2

// compound `Cc1ccc(N2C(=O)C(=Cc3cccc([N+](=O)[O-])c3)SC2=S)cc1` , assay RAW-Dual (murine macrophage reporter line), NF-kB reporter value: 0.949

# NF-kB reporter measured on RAW-Dual (murine macrophage reporter line) for item `Cc1nc2ccc(Cl)cn2c(=O)c1NC(=O)c1c(F)cccc1Cl` = 0.96

// NF-kB reporter (RAW-Dual (murine macrophage reporter line)) for O=C(O)CCCCC1CCSS1 (stereo not given) = 1.05

Record CC1CN(C2=NC(=O)C(=Cc3ccc(-c4ccccc4Cl)o3)S2)CC(C)O1 (stereo not given) has RAW-Dual (murine macrophage reporter line) NF-kB reporter equal to 0.943

For the compound `Cc1cc(C(=O)O)n[nH]1` , the measured NF-kB reporter on RAW-Dual (murine macrophage reporter line) was 1.03

The compound `COc1cc(NC(=O)NCc2nc(C)cc(N3CCOCC3)n2)cc(OC)c1` , when measured on RAW-Dual (murine macrophage reporter line), yielded NF-kB reporter of 1.07

Entry `Cc1cc(CCNC(=O)c2cc3ccccc3s2)nn1C` ; assay system RAW-Dual (murine macrophage reporter line); NF-kB reporter recorded at 0.991

Simply: `COc1c(Cl)ccc(Cl)c1C(=O)NCc1ccccc1` , RAW-Dual (murine macrophage reporter line), NF-kB reporter = 1.06

----------
Test system: RAW-Dual (murine macrophage reporter line)
Assay: NF-kB reporter (SEAP) activity fold change vs agonist alone; higher = enhanced NF-kB activity
Settings: modulator concentration 10 µM; agonist: MPLA […]
QUANTITY: NF-kB reporter
A bare number is all that is needed in reply.

Take a look at these entries with their results.
> print(dat)
                                   molecule  endpoint.result
1  Cc1c(F)cc(C(=O)NC2CC2)cc1-c1ccc(C(=O)NCC(C)(C)C)cn1             1.01
2  COC(C)(CNC(=O)CSc1ccc(F)cc1)c1cccc(Cl)c1 (stereo not drawn)             1.01
3  CC(C)Oc1ccc(C(=O)N2CCC(c3ccccc3)S(=O)(=O)CC2)cn1 (stereo not drawn)            0.998
4              COc1ccc2nc(NCCCn3ccnc3)sc2c1             1.04
5  O=C(CN(CCc1ccccc1)S(=O)(=O)c1ccc(Cl)cc1)NCc1ccccn1            0.987
6            Oc1ccc(/C=C/c2cc(O)cc(O)c2)cc1             1.11

So, `O=C(OCCN1CCCCC1)c1ccc(O)cc1` ? Its NF-kB reporter was 1.03

The value of NF-kB reporter measured for the molecule `COc1ccc(-c2csc(NC(=O)C3CC3)n2)cc1` turned out to be 1.05

Briefly, NF-kB reporter measured for `Cn1c(=O)[nH]c2nnc(-c3ccncc3)nc2c1=O` : 1.07

For `COC(=O)c1cc(NC(=O)C2CCCC2)cc(C(=O)OC)c1` the molecule record lists NF-kB reporter as 1.15

Memo: `O=C(Nc1ncc(S(=O)(=O)c2ccc([N+](=O)[O-])cc2)s1)c1cccs1` , reported NF-kB reporter: 0.914
